Form field: CTG-3D luminescence at 96 h (one value per entry).
System: HCI-001 (organoid from a triple-negative breast cancer xenograft)
Test: CTG-3D luminescence at 96 h relative to day-0 seeding control (ratio to day 0); higher = more growth / less cytotoxicity; PDxO 3D drug screen, 96 h, CTG-3D normalised to day-0 seeding control.
Settings: 0.1 µM; days in culture: 364
Answer with the value's number alone.

Field: example entries. Status: answers known.
Cc1nc(-c2cn3c(n2)-c2ccc(-c4cnn(C(C)(C)C(N)=O)c4)cc2OCC3)n(C(C)C)n1
0.786
Nc1ccn([C@@H]2O[C@H](CO)[C@@H](O)C2(F)F)c(=O)n1
0.275
Cc1cc(Nc2ncnc3ccc(NC4=NC(C)(C)CO4)cc23)ccc1Oc1ccn2ncnc2c1
0.88

# CTG-3D luminescence at 96 h lookup, item C=CC(=O)N1CCC[C@@H](n2nc(-c3ccc(Oc4ccccc4)cc3)c3c(N)ncnc32)C1
0.992

# CTG-3D luminescence at 96 h lookup, item CC(C)(C(=O)NCC(F)(F)C(F)(F)F)C(=O)N[C@@H]1C(=O)Nc2ccccc2-c2ccccc21
1.09

# CTG-3D luminescence at 96 h lookup, item C[C@@H]1COCCN1c1cc(C2([S@](C)(=N)=O)CC2)nc(-c2cc[nH]c3nccc2-3)n1
1.16

* * *

System: HCI-016 (organoid from a triple-negative breast cancer xenograft)
Test: CTG-3D luminescence at 96 h relative to day-0 seeding control (ratio to day 0); higher = more growth / less cytotoxicity; PDxO 3D drug screen, 96 h, CTG-3D normalised to day-0 seeding control.
Conditions: 0.00025 µM; days in culture: 153
parameterMeasured: CTG-3D luminescence at 96 h
Answer with the value's number alone.

Field: example entries. Status: answers known.
O=C(c1ccc(F)c(F)c1Nc1ccc(I)cc1F)N1CC(O)([C@@H]2CCCCN2)C1
1.63
O=C(/C=C/c1cccnc1)NCCCCC1CCN(C(=O)c2ccccc2)CC1
0.401
Nc1ccn([C@@H]2O[C@H](CO)[C@@H](O)C2(F)F)c(=O)n1
1.91
C=CCn1c(=O)c2cnc(Nc3ccc(N4CCN(C)CC4)cc3)nc2n1-c1cccc(C(C)(C)O)n1
2.15
CCN(c1cc(C#CCN2CCOCC2)cc(C(=O)NCc2c(C)cc(C)[nH]c2=O)c1C)[C@H]1CC[C@H](N(C)CCOC)CC1
1.14
O=C(O)C1(C(=O)O)CCC1.[NH2-].[NH2-].[Pt+2]
2.03
C[C@]12CC[C@@H]3c4ccc(O)cc4C[C@@H](CCCCCCCCC[S+]([O-])CCCC(F)(F)C(F)(F)F)[C@H]3[C@@H]1CC[C@@H]2O (stereo not given in full)
2.2
COc1cc2c(Oc3ccc4[nH]c(C)cc4c3F)ncnc2cc1OCCCN1CCCC1
2.24
CC(C)n1nc(-c2ccc3oc(N)nc3c2)c2c(N)ncnc21
1.03

// switching to the query compound
Request body: readout CTG-3D luminescence at 96 h, system HCI-016, query CC1(C)CCC(c2ccc(Cl)cc2)=C(CN2CCN(c3ccc(C(=O)NS(=O)(=O)c4ccc(N[C@H](CCN5CCOCC5)CSc5ccccc5)c(S(=O)(=O)C(F)(F)F)c4)cc3)CC2)C1 . Return the value.
1.54

* * *

Tested on: HCI-019 (organoid from a triple-negative breast cancer xenograft)
Assay: CTG-3D luminescence at 96 h relative to day-0 seeding control (ratio to day 0); higher = more growth / less cytotoxicity; PDxO 3D drug screen, 96 h, CTG-3D normalised to day-0 seeding control.
Conditions: 12.5 pM; days in culture: 110
Record rule met whenever CTG-3D luminescence at 96 h is at 2 or higher; record rule not met when lower.

Example results:
O=C(/C=C/c1cccnc1)NCCCCC1CCN(C(=O)c2ccccc2)CC1
rule met
O=C(c1ccc(F)c(F)c1Nc1ccc(I)cc1F)N1CC(O)([C@@H]2CCCCN2)C1
rule not met
NC(=O)c1cccc2cn(-c3ccc([C@@H]4CCCNC4)cc3)nc12
rule not met
CCc1c2c(nc3ccc(O)cc13)-c1cc3c(c(=O)n1C2)COC(=O)[C@]3(O)CC
rule not met
C[C@]12CC[C@@H]3c4ccc(O)cc4C[C@@H](CCCCCCCCC[S+]([O-])CCCC(F)(F)C(F)(F)F)[C@H]3[C@@H]1CC[C@@H]2O (some centres not stated)
rule met

Below: the item to evaluate.
Check the entry CC1(C)CCC(c2ccc(Cl)cc2)=C(CN2CCN(c3ccc(C(=O)NS(=O)(=O)c4ccc(N[C@H](CCN5CCOCC5)CSc5ccccc5)c(S(=O)(=O)C(F)(F)F)c4)cc3)CC2)C1 : does CTG-3D luminescence at 96 h equal or exceed 2?
rule not met

* * *

Tested on: HCI-027 (organoid from a triple-negative breast cancer xenograft)
Assay: CTG-3D luminescence at 96 h relative to day-0 seeding control (ratio to day 0); higher = more growth / less cytotoxicity; PDxO 3D drug screen (set 2), 96 h, CTG-3D normalised to day-0 seeding control.
Conditions: 0.005 µM; days in culture: 164
parameterMeasured: CTG-3D luminescence at 96 h
Answer with the value's number alone.

Field: example entries. Status: answers known.
CC(C)n1nc(-c2ccc3oc(N)nc3c2)c2c(N)ncnc21
1.15
C[C@@H](Nc1cc(F)cc(F)c1)c1cc(C(=O)N(C)C)cc2c(=O)cc(N3CCOCC3)oc12
2.29
CS(=O)(=O)CCNCc1ccc(-c2ccc3ncnc(Nc4ccc(OCc5cccc(F)c5)c(Cl)c4)c3c2)o1
1.91
CO[C@H]1C[C@@H]2CC[C@@H](C)[C@@](O)(O2)C(=O)C(=O)N2CCCC[C@H]2C(=O)O[C@H]([C@H](C)C[C@@H]2CC[C@@H](OCCO)[C@H](OC)C2)CC(=O)[C@H](C)/C=C(\C)[C@@H](O)[C@@H](OC)C(=O)[C@H](C)C[C@H](C)/C=C/C=C/C=C/1C
1.32
Cc1c(CN2CCN(C(=O)[C@H](C)O)CC2)sc2c(N3CCOCC3)nc(-c3cnc(N)nc3)nc12
2.6

# CTG-3D luminescence at 96 h lookup, item CCOc1ccn(-c2ccc(F)cc2)c(=O)c1C(=O)Nc1ccc(Oc2ccnc(N)c2Cl)c(F)c1
3.29

* * *

Tested on: HCI-012 (organoid from a breast cancer xenograft)
Assay: CTG-3D luminescence at 96 h relative to day-0 seeding control (ratio to day 0); higher = more growth / less cytotoxicity; PDxO 3D drug screen (set 2), 96 h, CTG-3D normalised to day-0 seeding control.
Conditions: 100 µM; days in culture: 256
Form field: CTG-3D luminescence at 96 h (one value per entry).
Answer with the value's number alone.

O=C(c1cc(Cc2n[nH]c(=O)c3ccccc23)ccc1F)N1CCN(C(=O)C2CC2)CC1
1.08
CC(=O)c1c(C)c2cnc(Nc3ccc(N4CCNCC4)cn3)nc2n(C2CCCC2)c1=O
0.605
CO[C@H]1C[C@@H]2CC[C@@H](C)[C@@](O)(O2)C(=O)C(=O)N2CCCC[C@H]2C(=O)O[C@H]([C@H](C)C[C@@H]2CC[C@@H](O)[C@H](OC)C2)CC(=O)[C@H](C)/C=C(\C)[C@@H](O)[C@@H](OC)C(=O)[C@H](C)C[C@H](C)/C=C/C=C/C=C/1C
0.0101
CO[C@H]1C[C@@H]2CC[C@@H](C)[C@@](O)(O2)C(=O)C(=O)N2CCCC[C@H]2C(=O)O[C@H]([C@H](C)C[C@@H]2CC[C@@H](OCCO)[C@H](OC)C2)CC(=O)[C@H](C)/C=C(\C)[C@@H](O)[C@@H](OC)C(=O)[C@H](C)C[C@H](C)/C=C/C=C/C=C/1C
-0.00358

// switching to the query compound
# CTG-3D luminescence at 96 h lookup, item C[C@@H](Nc1cc(F)cc(F)c1)c1cc(C(=O)N(C)C)cc2c(=O)cc(N3CCOCC3)oc12
0.409

* * *

Tested on: HCI-019
Assay: CTG-3D luminescence at 96 h relative to day-0 seeding control (ratio to day 0); higher = more growth / less cytotoxicity; PDxO 3D drug screen (set 2), 96 h, CTG-3D normalised to day-0 seeding control.
Conditions: 1 µM; days in culture: 215
Form field: CTG-3D luminescence at 96 h (one value per entry).
Answer with the value's number alone.

Field: example entries. Status: answers known.
CS(=O)(=O)CCNCc1ccc(-c2ccc3ncnc(Nc4ccc(OCc5cccc(F)c5)c(Cl)c4)c3c2)o1 [lapatinib]
1.66
CC(=O)O[C@@]12CO[C@@H]1C[C@H](O)[C@@]1(C)C(=O)[C@H](O)C3=C(C)[C@@H](OC(=O)[C@H](O)[C@@H](NC(=O)OC(C)(C)C)c4ccccc4)C[C@@](O)([C@@H](OC(=O)c4ccccc4)[C@H]21)C3(C)C [docetaxel]
0.342
CC(C)n1nc(-c2ccc3oc(N)nc3c2)c2c(N)ncnc21 [sapanisertib]
0.531
CO[C@H]1C[C@@H]2CC[C@@H](C)[C@@](O)(O2)C(=O)C(=O)N2CCCC[C@H]2C(=O)O[C@H]([C@H](C)C[C@@H]2CC[C@@H](OCCO)[C@H](OC)C2)CC(=O)[C@H](C)/C=C(\C)[C@@H](O)[C@@H](OC)C(=O)[C@H](C)C[C@H](C)/C=C/C=C/C=C/1C [everolimus]
0.482

// switching to the query compound
# CTG-3D luminescence at 96 h lookup, item COc1cccc2c1C(=O)c1c(O)c3c(c(O)c1C2=O)C[C@@](O)(C(=O)CO)C[C@@H]3O[C@H]1C[C@H](N)[C@@H](O)[C@H](C)O1 [epirubicin]
0.205
